Where do the numbers come from? From patent US11014905B2.

experiment: Test 3-1: metabolic stability test of human liver microsome; format: in vitro ADME; settings: human liver microsome 0.1 mg/mL, test compound 0.1 μmol/L, 37° C., 30 minutes
Recorded metric: Metabolic stability of human liver microsome

Read off the recorded Metabolic stability of human liver microsome for Cc1cccc(C2=CCN(CCNC(=O)[C@H]3C[C@@H]4CC[C@H]3O4)CC2)n1 [Example 13]
<0.05 mL/min/mg protein

Read off the recorded Metabolic stability of human liver microsome for Cc1cccc(C2=CCN(CCNC(=O)C3CCOCC3)CC2)n1 [Example 29]
<0.05 mL/min/mg protein

Read off the recorded Metabolic stability of human liver microsome for CC(C)(C)C(=O)NCCN1CC=C(c2cccc(C(F)(F)F)n2)CC1 [Example 31]
<0.05 mL/min/mg protein

Read off the recorded Metabolic stability of human liver microsome for COCC(C)(C)C(=O)NCCN1CCC(c2cccc(C)n2)CC1 [Example 5]
<0.01 mL/min/mg protein

Read off the recorded Metabolic stability of human liver microsome for CN(C)c1cccc(C2CCN(CCNC(=O)C3CCOCC3)CC2)n1 [Example 38]
<0.05 mL/min/mg protein

Read off the recorded Metabolic stability of human liver microsome for O=C(NCCN1CCC(c2cccc(C(F)(F)F)n2)CC1)[C@H]1C[C@@H]2CC[C@H]1O2 [Example 21]
<0.05 mL/min/mg protein

Read off the recorded Metabolic stability of human liver microsome for Cc1cccc(C2CCN(CCNC(=O)C3CCCOC3)CC2)n1 (stereo not drawn) [Example 15]
<0.05 mL/min/mg protein

Read off the recorded Metabolic stability of human liver microsome for O=C(NCCN1CCC(c2cccc(C(F)(F)F)n2)CC1)C1CCC(F)(F)CC1 [Example 1]
0.073 mL/min/mg protein

Read off the recorded Metabolic stability of human liver microsome for O=C(NCCN1CCC(c2cccc(C(F)(F)F)n2)CC1)C1CCCOC1 (stereo not drawn) [Example 2]
0.069 mL/min/mg protein
